tested on: Staphylococcus aureus ATCC 43300 MRSA; experiment: CO-ADD antibacterial assay (growth inhibition, MIC), MRSA; format: cell-based; details: read-out: MRSA MIC (CO-ADD)
measurementKind: MIC (mg/L)

The following compounds have reported results that may help.
Would you mind telling me what MIC value was observed for c1ccc(-c2nc3n(c2-c2ccc4sccc4c2)CCC3)nc1 ? 2

Would you mind telling me what MIC value was observed for CSc1ccc(-c2c(-c3ccccn3)nc3n2CCC3)cc1 ? 4

Would you mind telling me what MIC value was observed for c1ccc(-c2nc3n(c2-c2ccc4occc4c2)CCC3)nc1 ? 4

Would you mind telling me what MIC value was observed for COc1ccc(-c2c(-c3ccccn3)nc3n2CCC3)cc1 ? 16

Would you mind telling me what MIC value was observed for c1ccc(-c2nc3n(c2-c2ccc4ccsc4c2)CCC3)nc1 ? 4

Would you mind telling me what MIC value was observed for c1ccc(-c2nc3n(c2-c2ccc4c(c2)OCCO4)CCC3)nc1 ? 16

(1) COc1ccc(-c2c(-c3ccccn3)nc3n2CCC3)cc1OC
(2) CSc1cccc(-c2c(-c3ccccn3)nc3n2CCC3)c1
Between the entries labeled 1 and 2 , whose measured MIC is lower? Use the label to indicate which entry you chose. 2
(2: 4 mg/L, 1: 32 mg/L)

---

assay: Human plasma protein binding (PPB); format: in vitro ADME; conditions: human, plasma; read-out: Human PPB (converted)
measurementKind: fraction unbound

The following compounds have reported results that may help.
Would you mind telling me what fraction unbound value was observed for CCCN(c1ccc(F)cc1)c1c(-c2ccccn2)nc2ccccn12 [compound 982] ? 0.007

Would you mind telling me what fraction unbound value was observed for Cc1ccc(-c2c(-c3ccccn3)nc3n2CCC3)cc1 [compound 865] ? 0.08

(a) CN(C)C(=O)c1ccc(-c2c(-c3ccccn3)nc3n2CCC3)cc1 [compound 974]
(b) CC(C)CN(c1ccc(F)cc1)c1c(-c2ccccn2)nc2ccccn12 [compound 983]
Between the entries labeled a and b , whose measured fraction unbound is lower? Use the label to indicate which entry you chose. b
(b: 0.004, a: 0.55)

---

assay: In vitro metabolic stability, rat liver microsomes (Monash); type: in vitro ADME; conditions: Monash, read-out: RLM Clint (Monash)
measurementKind: microsomal CLint at 1 µM (µL/min/mg)

Would you mind telling me what microsomal CLint at 1 µM value was observed for c1ccc(-c2nc3n(c2-c2ccc4occc4c2)CCC3)nc1 [compound 821] ? 72

Would you mind telling me what microsomal CLint at 1 µM value was observed for c1ccc(-c2nc3n(c2-c2ccc4c(c2)OCO4)CCS3)nc1 [OSA_000813] ? 74

Would you mind telling me what microsomal CLint at 1 µM value was observed for c1ccc(-c2nc3ccccn3c2-c2ccc3c(c2)OCO3)nc1 [OSA_000814] ? 99

---

tested on: VSE; assay: In vitro antibacterial activity, MIC, VSE; assay type: cell-based; conditions: read-out: VSE MIC
measurementKind: MIC (µg/mL)

Would you mind telling me what MIC value was observed for Cc1ccc(Nc2c(-c3ccccn3)nc3ccccn23)cc1 [compound 988] ? 16

(I) c1ccc(-c2nc3n(c2-c2ccc4sccc4c2)CCC3)nc1 [compound 822]
(II) Fc1ccc(Nc2c(-c3ccccn3)nc3ccccn23)cc1 [compound 987]
Between the entries labeled I and II , whose measured MIC is lower? Use the label to indicate which entry you chose. I

---

assay: LogD7.4 (Chrom Log D); type: physicochemical; details: chromatographic system (Chrom Log D); pH 7.4, NEU; read-out: LogD 7.4 (NEU)
measurementKind: chromatographic logD

The following compounds have reported results that may help.
Would you mind telling me what chromatographic logD value was observed for COc1ccn2c(-c3ccc(F)cc3)c(-c3ccccn3)nc2c1 [OSA_000858] ? 2.9

Would you mind telling me what chromatographic logD value was observed for CN(c1ccc(F)cc1)c1c(-c2ccccn2)nc2ccc(Br)cn12 [OSA_001003] ? 4.2

(a) Cc1ccc(-c2c(-c3ccccn3)nc3ccccn23)cc1 [OSA_001018]
(b) Fc1ccc(Nc2c(-c3ccccn3)nc3sccn23)cc1 [OSA_000984]
(c) COc1ccn2cc(-c3ccccn3)nc2c1 [OSA_000856]
Could you please sort these 3 entries by chromatographic logD from high to low? List each label, following the requested order. a, c, b

---

tested on: MRC-5SV2 (human lung fibroblast cell line); experiment: Toxicity against MRC-5SV2; type: cell-based; conditions: MRC5 cells
measurementKind: MRC5 TC50 (µM)
API: value field is a number in µM; no unit string.

Would you mind telling me what MRC5 TC50 value was observed for Nc1ccc(-c2c(-c3ccccn3)nc3n2CCC3)cc1 [OSA_001074] ? 5.73

Would you mind telling me what MRC5 TC50 value was observed for Fc1ccc(-c2c(-c3ccccn3)nc3n2CCC3)cc1 [OSA_001053] ? 7.55

---

experiment: Rat liver microsome (RLM) metabolic stability (UNC); format: in vitro ADME; settings: rat liver microsomes, read-out: RLM t1/2 (UNC)
measurementKind: half-life (min)
API: value field is a number in min; no unit string.

Would you mind telling me what half-life value was observed for c1ccc(-c2nc3n(c2-c2ccc4c(c2)OCO4)CCC3)nc1 [OSA_000812] ? 17.7

---

Assay: Aqueous solubility
Format: physicochemical
Conditions: thermodynamic from solid; NEU; read-out: Aqueous Solubility (NEU)
Procedure: To guide our initial SAR exploration work, we obtained liver microsomal intrinsic clearance data for 5 of the 18 compounds assayed by CO-ADD (Supporting Information - CDCO Report and Supporting Information - Biology). […] ADME and toxicity for compounds were measured according to procedures outlined in the manuscript submitted in parallel to this one;2 other procedures were used for those compounds analysed by Monash University (in vitro ADME) or UCL (toxicity), both described in the main
measurementKind: solubility (µM)

The following compounds have reported results that may help.
Would you mind telling me what solubility value was observed for COc1ccc(-c2nc3ccc(OC)cn3c2N(C)c2ccc(F)cc2)nc1 [OSA_000999] ? 27

Would you mind telling me what solubility value was observed for COc1cccn2c(N(C)c3ccc(F)cc3)c(-c3ccccn3)nc12 [OSA_001001] ? 26

(I) COc1ccn2c(-c3ccc(F)cc3)c(-c3ccccn3)nc2c1 [OSA_000858]
(II) COc1ccnc(-c2nc3cc(OC)ccn3c2N(C)c2ccc(F)cc2)c1 [OSA_001000]
Between the entries labelled I and II , which has a larger solubility value on record? Use the label to indicate which entry you chose. I

---

Recorded MRSA MIC, one value per entry.
tested on: Staphylococcus aureus NCTC 13373 (mecA-positive; methicillin-resistant); assay: In vitro antibacterial activity, MIC (UCL School of Pharmacy assay), MRSA; assay type: cell-based

Would you mind telling me what MRSA MIC value was observed for COc1ccn2c(NCc3cn(C)cn3)c(-c3ccccn3)nc2c1.O=CO ? > 32 µg/mL

Would you mind telling me what MRSA MIC value was observed for COc1ccn2c(-c3ccc(F)cc3)c(-c3ccccn3)nc2c1 ? 16 µg/mL

Would you mind telling me what MRSA MIC value was observed for N#Cc1ccc(-c2c(-c3ccccn3)nc3ccccn23)cc1 ? > 32 µg/mL

Would you mind telling me what MRSA MIC value was observed for COc1cccc(-c2nc3ccccn3c2N(CC(C)C)c2ccc(F)cc2)n1 ? > 32 µg/mL

Would you mind telling me what MRSA MIC value was observed for COc1ccc(-c2c(-c3ccccn3)nc3n2CCC3)cc1OC ? 32 µg/mL

***
Would you mind telling me what MRSA MIC value was observed for Cc1ccc(-c2c(-c3ccccn3)nc3cc(C#N)ccn23)cc1 ? > 32 µg/mL

---

assay: Rat hepatocyte intrinsic clearance; assay type: in vitro ADME; details: rat hepatocytes, NEU; read-out: Rat Hep CLint (NEU)
measurementKind: hepatocyte CLint (µL/min/1e6 cells)

Would you mind telling me what hepatocyte CLint value was observed for COc1ccn2c(-c3ccccc3)c(-c3ccccn3)nc2c1 ? 23.9

(I) COc1ccn2c(-c3cccc(Cl)n3)c(-c3ccccn3)nc2c1
(II) c1cc(-c2nc3n(c2-c2ccc4occc4c2)CCC3)ccn1
Between the entries labeled I and II , whose measured hepatocyte CLint is lower? Use the label to indicate which entry you chose. I

---

assay: Kinetic solubility estimation using nephelometry (Monash); format: physicochemical; settings: pH 6.5 phosphate buffer
measurementKind: Sol 6.5

The following compounds have reported results that may help.
Would you mind telling me what Sol 6.5 value was observed for c1ccc(-c2nc3ccccn3c2-c2ccc3c(c2)OCO3)nc1 ? 25 to 50 µg/mL

Would you mind telling me what Sol 6.5 value was observed for c1ccc(-c2nc3n(c2-c2ccc4sccc4c2)CCC3)nc1 ? 12.5 to 25 µg/mL

Would you mind telling me what Sol 6.5 value was observed for c1ccc(-c2nc3n(c2-c2ccc4c(c2)OCO4)CCC3)nc1 ? 50 to 100 µg/mL

Would you mind telling me what Sol 6.5 value was observed for c1ccc(-c2nc3n(c2-c2ccc4c(c2)OCO4)CCS3)nc1 ? 12.5 to 25 µg/mL

Please find the next compound below.
Would you mind telling me what Sol 6.5 value was observed for c1ccc(-c2nc3n(c2-c2ccc4occc4c2)CCC3)nc1 ? 25 to 50 µg/mL
